tested on: Escherichia coli TOP10; test: shrunken log2 fold change of peptide-encoding DNA abundance (4.5 h post-induction vs induction); higher = less antimicrobial activity (less host growth inhibition); conditions: time post-induction: 4.5 h; library: site-saturation at positions 5, 18, 19, 20
Measurement Kind: shrunken log2 fold change
Form: value (number only, do not type unit).

Illustrative cases are given below, each with its answer.
* RRIRKRPPRLPRPRPRPMSNPRP | -0.00773
* RRIRVRPPRLPRPRPRPTNQPRP | 0.0229
* RRIRERPPRLPRPRPRPDELPRP | -0.00377
* RRIRKRPPRLPRPRPRPWVGPRP | 0.0422
* RRIRERPPRLPRPRPRPVNMPRP | -0.139
* RRIRTRPPRLPRPRPRPVGKPRP | 0.0504
* RRIRDRPPRLPRPRPRPVEPPRP | 0.0157
* RRIRWRPPRLPRPRPRPYGTPRP | -0.232
* RRIRHRPPRLPRPRPRPFDHPRP | -0.0277
* RRIRERPPRLPRPRPRPMIPPRP | -0.0272

Incoming: Note shrunken log2 fold change for the sequence shown: RRIRIRPPRLPRPRPRPDGNPRP
Outgoing: -0.0425

Incoming: Note shrunken log2 fold change for the sequence shown: RRIRRRPPRLPRPRPRPGVYPRP
Outgoing: -0.0241

Incoming: Note shrunken log2 fold change for the sequence shown: RRIRQRPPRLPRPRPRPPSYPRP
Outgoing: -0.0228

---

tested on: Escherichia coli TOP10; experiment: shrunken log2 fold change of peptide-encoding DNA abundance (4.5 h post-induction vs induction); higher = less antimicrobial activity (less host growth inhibition); conditions: time post-induction: 4.5 h; library: site-saturation at positions 5, 18, 19, 20
Measurement Kind: shrunken log2 fold change
Form: value (number only, do not type unit).

- RRIRRRPPRLPRPRPRPYFIPRP: -0.432
- RRIRFRPPRLPRPRPRPGHTPRP: -0.445
- RRIRNRPPRLPRPRPRPSLPPRP: -0.378
- RRIRWRPPRLPRPRPRPHDEPRP: -0.2
- RRIRWRPPRLPRPRPRPLCSPRP: 0.13
- RRIRGRPPRLPRPRPRPMRFPRP: 0.112

Incoming: Note shrunken log2 fold change for the sequence shown: RRIRSRPPRLPRPRPRPTYCPRP
Outgoing: -0.112

Incoming: Note shrunken log2 fold change for the sequence shown: RRIRSRPPRLPRPRPRPDFWPRP
Outgoing: 0.506

Incoming: Note shrunken log2 fold change for the sequence shown: RRIRIRPPRLPRPRPRPASAPRP
Outgoing: 0.613

Incoming: Note shrunken log2 fold change for the sequence shown: RRIRHRPPRLPRPRPRPGEKPRP
Outgoing: -0.102

---

Each record here notes measured shrunken log2 fold change.
system: Escherichia coli TOP10; test: shrunken log2 fold change of peptide-encoding DNA abundance (4.5 h post-induction vs induction); higher = less antimicrobial activity (less host growth inhibition); conditions: time post-induction: 4.5 h; library: site-saturation at positions 5, 18, 19, 20;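 also: peptides expressed intracellularly from a pBAD plasmid library in pooled LB shake-flask culture, induced with 0.3% L-arabinose, DNA abundance read by NGS, three biological replicates, DESeq2 with apeglm shrinkage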
Form: value (number only, do not type unit).

Incoming: Note shrunken log2 fold change for the sequence shown: RRIRDRPPRLPRPRPRPNMSPRP
Outgoing: -0.0444

Incoming: Note shrunken log2 fold change for the sequence shown: RRIRPRPPRLPRPRPRPNDDPRP
Outgoing: -0.188

Incoming: Note shrunken log2 fold change for the sequence shown: RRIRARPPRLPRPRPRPTVLPRP
Outgoing: 0.106

The origin of these recorded values is the supplement of paper PMC9112550.
